Attribution: patent US20120035196A1

# system.tested: human GPR40 (Homo sapiens, UniProt O14842, R211H)
# Sequence (O14842 whole entry R211H): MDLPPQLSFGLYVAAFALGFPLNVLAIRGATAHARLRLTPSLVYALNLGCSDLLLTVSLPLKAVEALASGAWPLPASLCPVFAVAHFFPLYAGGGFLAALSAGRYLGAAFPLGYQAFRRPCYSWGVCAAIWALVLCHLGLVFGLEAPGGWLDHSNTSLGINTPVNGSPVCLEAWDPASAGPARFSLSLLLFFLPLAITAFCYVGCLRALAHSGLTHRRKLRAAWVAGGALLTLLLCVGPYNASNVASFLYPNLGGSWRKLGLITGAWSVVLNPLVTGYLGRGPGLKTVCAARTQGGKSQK
# procedure.summary: Measurement of GPR40 agonistic activity (FLIPR, change in intracellular calcium concentration)
# condition.description: CHO cell strain expressing human GPR40; changes in fluorescence intensity after 1 minute
readout.type: EC50 (nM)
Report the value in nM with no unit label.

Example results:
Returns the measured EC50 for the input compound. Input: Cc1cc(OCCO)cc(C)c1-c1cccc(COc2ccc3c(c2)OC2(CC2)C3CC(=O)O)c1C (centres unmarked) [Example 25-3a]
560

Returns the measured EC50 for the input compound. Input: Cc1cc(OCCC(C)(C)O)cc(C)c1-c1cccc(COc2ccc3c(c2)OC2(CC2)C3CC(=O)O)c1C (centres unmarked)
810

Returns the measured EC50 for the input compound. Input: Cc1cc(OCCC(C)(C)O)cc(C)c1-c1cccc(CNc2ccc3c(c2)CC2(CC2)C3CC(=O)O)c1C (centres unmarked)
790

Returns the measured EC50 for the input compound. Input: COCCCOc1cc(C)c(-c2cccc(COc3ccc4c(c3)OC3(CC3)C4CC(=O)O)c2C)c(C)c1 (centres unmarked)
710

Returns the measured EC50 for the input compound. Input: COCCOc1cc(C)c(-c2cccc(COc3ccc4c(c3)OC3(CC3)C4CC(=O)O)c2C)c(C)c1 (centres unmarked)
750

Others:
Returns the measured EC50 for the input compound. Input: Cc1cc(OC[C@@H](O)CO)cc(C)c1-c1cccc(COc2ccc3c(c2)OC2(CC2)C3CC(=O)O)c1C (some centres unmarked) [Example 22-1]
270

Returns the measured EC50 for the input compound. Input: Cc1cc(OCC[C@@H](O)CO)cc(C)c1-c1cccc(COc2ccc3c(c2)OC2(CC2)C3CC(=O)O)c1C (some centres unmarked)
430

Returns the measured EC50 for the input compound. Input: Cc1cc(OCC[C@H](O)CO)cc(C)c1-c1cccc(COc2ccc3c(c2)OC2(CC2)C3CC(=O)O)c1C (single isomer, unassigned) [Example 25-7b]
330

Returns the measured EC50 for the input compound. Input: Cc1cc(OCCO)cc(C)c1-c1cccc(CNc2ccc3c(c2)CC2(CC2)C3CC(=O)O)c1C (single isomer, unassigned) [Example 25b]
210

Returns the measured EC50 for the input compound. Input: Cc1cc(OC[C@H](O)CO)cc(C)c1-c1cccc(COc2ccc3c(c2)OC2(CC2)C3CC(=O)O)c1C (some centres unmarked)
250

Returns the measured EC50 for the input compound. Input: Cc1cc(OC[C@H](O)CO)cc(C)c1-c1cccc(COc2ccc3c(c2)-c2ccccc2C3CC(=O)O)c1C (some centres unmarked)
610

###

# system.tested: human GPR40 (Homo sapiens, UniProt O14842, R211H)
# procedure.summary: Measurement of GPR40 agonistic activity (FLIPR, change in intracellular calcium concentration)
# condition.description: CHO cell strain expressing human GPR40; changes in fluorescence intensity after 1 minute
readout.type: pEC50
In textbook form, pEC50 equals minus log to base ten of the concentration in mol/L.

Returns the measured pEC50 for the input compound. Input: Cc1cc(OC[C@@H](O)CO)cc(C)c1-c1cccc(COc2ccc3c(c2)OC2(CC2)C3CC(=O)O)c1C (single isomer, unassigned) [Example 25-5a]
6.46

Returns the measured pEC50 for the input compound. Input: Cc1cc(OCCO)cc(C)c1-c1cccc(COc2ccc3c(c2)-c2ccccc2C3CC(=O)O)c1C (stereo not shown)
6.28

Returns the measured pEC50 for the input compound. Input: Cc1cc(OC[C@H](O)CO)cc(C)c1-c1cccc(COc2ccc3c(c2)CC2(CC2)C3CC(=O)O)c1C (stereo partly shown)
6.60

Others:
Returns the measured pEC50 for the input compound. Input: Cc1nc(OCCO)nc(C)c1-c1cccc(COc2ccc3c(c2)CC2(CC2)C3CC(=O)O)c1C (stereo not shown)
6.28

Returns the measured pEC50 for the input compound. Input: Cc1nc(OCCC(C)(C)O)nc(C)c1-c1cccc(COc2ccc3c(c2)CC2(CC2)C3CC(=O)O)c1C (stereo not shown)
6.23

Returns the measured pEC50 for the input compound. Input: Cc1cc(OC[C@@H](O)CO)cc(C)c1-c1cccc(COc2ccc3c(c2)OC2(CC2)C3CC(=O)O)c1C (single isomer, unassigned) [Example 25-5b]
6.59

Returns the measured pEC50 for the input compound. Input: COCCOc1cc(C)c(-c2cccc(CNc3ccc4c(c3)CC3(CC3)C4CC(=O)O)c2C)c(C)c1 (stereo not shown)
6.21

Returns the measured pEC50 for the input compound. Input: Cc1cccc(C)c1-c1cccc(COc2ccc3c(c2)-c2ccccc2C3CC(=O)O)c1C (stereo not shown)
6.11

Returns the measured pEC50 for the input compound. Input: CCOCCOc1cc(C)c(-c2cccc(COc3ccc4c(c3)OC3(CC3)C4CC(=O)O)c2C)c(C)c1 (stereo not shown)
6.09

Returns the measured pEC50 for the input compound. Input: Cc1cc(OCCO)cc(C)c1-c1cccc(COc2ccc3c(c2)OC2(CC2)C3CC(=O)O)c1C (stereo not shown) [Example 20]
6.31

###

# system.tested: human GPR40 (Homo sapiens, UniProt O14842, R211H)
# procedure.summary: Measurement of GPR40 agonistic activity (FLIPR, change in intracellular calcium concentration)
# condition.description: CHO cell strain expressing human GPR40; changes in fluorescence intensity after 1 minute
Reported pEC50 values for a set of compounds
In textbook form, pEC50 equals minus log to base ten of the concentration in mol/L.

Returns the measured pEC50 for the input compound. Input: Cc1cc(OCCO)cc(C)c1-c1cccc(COc2ccc3c(c2)OC2(CC2)C3CC(=O)O)c1C (stereo not drawn) [Example 25-3b]
6.72

Others:
Returns the measured pEC50 for the input compound. Input: Cc1cc(OCC[C@H](O)CO)cc(C)c1-c1cccc(COc2ccc3c(c2)OC2(CC2)C3CC(=O)O)c1C (single isomer, unassigned) [Example 25-7a]
6.31

Returns the measured pEC50 for the input compound. Input: Cc1cc(OCC[C@H](O)CO)cc(C)c1-c1cccc(COc2ccc3c(c2)OC2(CC2)C3CC(=O)O)c1C (stereo partly drawn) [Example 22-3]
6.33
